Test: Pharmacokinetics Experiment 2, subcutaneous dog
Type: in vivo
Details: SC, 8 mg/kg (as free acid), plasma HPLC
Counter-ions that a name gives are not always drawn.

Compound	half-life [h]
CO/N=C(\C(=O)N[C@@H]1C(=O)N2C(C(=O)O)=C([C@@H]3CCCO3)CS[C@H]12)c1csc(N)n1 [Compound I, monosodium salt]	113

Source listed as patent US7378408B2.
